Data provenance: ChEMBL document CHEMBL4002566

# Test system: Mycobacterium kansasii
# Test Summary: Antimycobacterial activity against Mycobacterium kansasii 6509/96 clinical isolate after 21 days by micromethod
# Assay type: functional
# Condition Parameters: 6509/96, 504 h

Structure As Smiles	Modifier	MIC / µM
O=[N+]([O-])c1cc(-n2nnnc2SCc2ccc(Cl)cc2)cc([N+](=O)[O-])c1	=	1
O=[N+]([O-])c1cc(-c2nnc(SCc3ccc(Cl)c(Cl)c3)o2)cc(C(F)(F)F)c1	=	1
O=[N+]([O-])c1cc(-c2nnc(SCc3ccccc3Cl)o2)cc([N+](=O)[O-])c1	=	0.125
CC(=O)Nc1cc(-c2nnc(SCc3ccc([N+](=O)[O-])cc3)o2)cc([N+](=O)[O-])c1	>	500
Nc1cc(-c2nnc(SCc3ccccc3)o2)cc([N+](=O)[O-])c1	=	250
O=[N+]([O-])c1cc(-c2nnc(SCc3ccc(Br)cc3)o2)cc([N+](=O)[O-])c1	=	0.06
Nc1cc(-c2nnc(SCc3ccc(Br)cc3)o2)cc([N+](=O)[O-])c1	=	125
CC(=O)Nc1cc(-c2nnc(SCc3ccccc3)o2)cc([N+](=O)[O-])c1	>	1000
COc1ccc(CSc2nnc(-c3cc(N)cc([N+](=O)[O-])c3)o2)cc1	=	250
O=[N+]([O-])c1cc(O)cc(-c2nnc(SCc3ccc(Cl)c(Cl)c3)o2)c1	>	250
O=[N+]([O-])c1cc(-c2nnc(SCc3ccc(Cl)cc3Cl)o2)cc([N+](=O)[O-])c1	=	0.03
Nc1cc(-c2nnc(SCc3ccc([N+](=O)[O-])cc3)o2)cc([N+](=O)[O-])c1	=	125
